# Condition Set: ethanol; stood at room temperature overnight
Provide the reported Solubility, Ethanol of each item.
Note: unit w/v % is implicit; provide only the numeric part.

Form field: reported Solubility, Ethanol of C[N+](C)(C)CCCC[N+](C)(C)C.O=C(C=C([O-])C(F)(F)F)c1ccc2ccccc2c1.O=C(C=C([O-])C(F)(F)F)c1ccc2ccccc2c1.O=C(C=C([O-])C(F)(F)F)c1ccc2ccccc2c1.O=C(C=C([O-])C(F)(F)F)c1ccc2ccccc2c1.O=C(C=C([O-])C(F)(F)F)c1ccc2ccccc2c1.O=C(C=C([O-])C(F)(F)F)c1ccc2ccccc2c1.O=C(C=C([O-])C(F)(F)F)c1ccc2ccccc2c1.O=C(C=C([O-])C(F)(F)F)c1ccc2ccccc2c1.[Tb+3].[Tb+3] [Luminous Organic Compound 10]
0.062

What do you get for C[N+](C)(C)CCCC[N+](C)(C)C.O=C(C=C([O-])C(F)(F)F)c1ccc2ccccc2c1.O=C(C=C([O-])C(F)(F)F)c1ccc2ccccc2c1.O=C(C=C([O-])C(F)(F)F)c1ccc2ccccc2c1.O=C(C=C([O-])C(F)(F)F)c1ccc2ccccc2c1.O=C(C=C([O-])C(F)(F)F)c1ccc2ccccc2c1.O=C(C=C([O-])C(F)(F)F)c1ccc2ccccc2c1.O=C(C=C([O-])C(F)(F)F)c1ccc2ccccc2c1.O=C(C=C([O-])C(F)(F)F)c1ccc2ccccc2c1.[Al+3].[Al+3] [Luminous Organic Compound 11] ?
0.21

====

# Condition Set: toluene; stood at room temperature overnight
Reported Metric: Solubility, Toluene (w/v %)
Field format: number, assumed w/v %, no unit text.

For C[N+](C)(C)CCCC[N+](C)(C)C.O=C(C=C([O-])C(F)(F)F)c1ccc2ccccc2c1.O=C(C=C([O-])C(F)(F)F)c1ccc2ccccc2c1.O=C(C=C([O-])C(F)(F)F)c1ccc2ccccc2c1.O=C(C=C([O-])C(F)(F)F)c1ccc2ccccc2c1.O=C(C=C([O-])C(F)(F)F)c1ccc2ccccc2c1.O=C(C=C([O-])C(F)(F)F)c1ccc2ccccc2c1.O=C(C=C([O-])C(F)(F)F)c1ccc2ccccc2c1.O=C(C=C([O-])C(F)(F)F)c1ccc2ccccc2c1.[Tb+3].[Tb+3] , what is its reported Solubility, Toluene?
0.43

====

# Condition Set: ethanol; stood at room temperature overnight
Reported Metric: Solubility, Ethanol (w/v %)
Respond numerically; units are w/v % and should not be typed.

Tell me the measured Solubility, Ethanol of C[N+](C)(C)c1ccc([N+](C)(C)C)cc1.O=C(C=C([O-])C(F)(F)F)c1ccc2ccccc2c1.O=C(C=C([O-])C(F)(F)F)c1ccc2ccccc2c1.O=C(C=C([O-])C(F)(F)F)c1ccc2ccccc2c1.O=C(C=C([O-])C(F)(F)F)c1ccc2ccccc2c1.O=C(C=C([O-])C(F)(F)F)c1ccc2ccccc2c1.O=C(C=C([O-])C(F)(F)F)c1ccc2ccccc2c1.O=C(C=C([O-])C(F)(F)F)c1ccc2ccccc2c1.O=C(C=C([O-])C(F)(F)F)c1ccc2ccccc2c1.[Eu+3].[Eu+3] , please.
0.08

Please answer likewise for C[N+](C)(C)c1ccc(-c2ccc([N+](C)(C)C)cc2)cc1.O=C(C=C([O-])C(F)(F)F)c1ccc2ccccc2c1.O=C(C=C([O-])C(F)(F)F)c1ccc2ccccc2c1.O=C(C=C([O-])C(F)(F)F)c1ccc2ccccc2c1.O=C(C=C([O-])C(F)(F)F)c1ccc2ccccc2c1.O=C(C=C([O-])C(F)(F)F)c1ccc2ccccc2c1.O=C(C=C([O-])C(F)(F)F)c1ccc2ccccc2c1.O=C(C=C([O-])C(F)(F)F)c1ccc2ccccc2c1.O=C(C=C([O-])C(F)(F)F)c1ccc2ccccc2c1.[Eu+3].[Eu+3]
0.37

====

# Condition Set: xylene; stood at room temperature overnight
Field: Solubility, Xylene. Provide a value for each of the compounds that follow.
Could you give me the number in w/v %? Just the number is fine.

Look up Solubility, Xylene for this compound: C[N+](C)(C)CCCC[N+](C)(C)C.O=C(C=C([O-])C(F)(F)F)c1cccs1.O=C(C=C([O-])C(F)(F)F)c1cccs1.O=C(C=C([O-])C(F)(F)F)c1cccs1.O=C(C=C([O-])C(F)(F)F)c1cccs1.O=C(C=C([O-])C(F)(F)F)c1cccs1.O=C(C=C([O-])C(F)(F)F)c1cccs1.O=C(C=C([O-])C(F)(F)F)c1cccs1.O=C(C=C([O-])C(F)(F)F)c1cccs1.[Eu+3].[Eu+3]
0.10

Thanks! And C[N+](C)(C)CCCCCC[N+](C)(C)C.O=C(C=C([O-])C(F)(F)F)c1ccc2ccccc2c1.O=C(C=C([O-])C(F)(F)F)c1ccc2ccccc2c1.O=C(C=C([O-])C(F)(F)F)c1ccc2ccccc2c1.O=C(C=C([O-])C(F)(F)F)c1ccc2ccccc2c1.O=C(C=C([O-])C(F)(F)F)c1ccc2ccccc2c1.O=C(C=C([O-])C(F)(F)F)c1ccc2ccccc2c1.O=C(C=C([O-])C(F)(F)F)c1ccc2ccccc2c1.O=C(C=C([O-])C(F)(F)F)c1ccc2ccccc2c1.[Eu+3].[Eu+3] ?
0.18

Do the same for C[N+](C)(C)CCCC[N+](C)(C)C.O=C(C=C([O-])C(F)(F)F)c1ccccc1.O=C(C=C([O-])C(F)(F)F)c1ccccc1.O=C(C=C([O-])C(F)(F)F)c1ccccc1.O=C(C=C([O-])C(F)(F)F)c1ccccc1.O=C(C=C([O-])C(F)(F)F)c1ccccc1.O=C(C=C([O-])C(F)(F)F)c1ccccc1.O=C(C=C([O-])C(F)(F)F)c1ccccc1.O=C(C=C([O-])C(F)(F)F)c1ccccc1.[Eu+3].[Eu+3] please
0.12

====

# Condition Set: methyl ethyl ketone; stood at room temperature overnight
Reported Metric: Solubility, Methyl Ethyl Ketone

molecule=C[N+](C)(C)CCCC[N+](C)(C)C.O=C(C=C([O-])C(F)(F)F)c1cccs1.O=C(C=C([O-])C(F)(F)F)c1cccs1.O=C(C=C([O-])C(F)(F)F)c1cccs1.O=C(C=C([O-])C(F)(F)F)c1cccs1.O=C(C=C([O-])C(F)(F)F)c1cccs1.O=C(C=C([O-])C(F)(F)F)c1cccs1.O=C(C=C([O-])C(F)(F)F)c1cccs1.O=C(C=C([O-])C(F)(F)F)c1cccs1.[Eu+3].[Eu+3] reported_metric="Solubility, Methyl Ethyl Ketone" result="over 10.0 w/v %"
molecule=C[N+](C)(C)CC[N+](C)(C)C.O=C(C=C([O-])C(F)(F)F)c1ccc2ccccc2c1.O=C(C=C([O-])C(F)(F)F)c1ccc2ccccc2c1.O=C(C=C([O-])C(F)(F)F)c1ccc2ccccc2c1.O=C(C=C([O-])C(F)(F)F)c1ccc2ccccc2c1.O=C(C=C([O-])C(F)(F)F)c1ccc2ccccc2c1.O=C(C=C([O-])C(F)(F)F)c1ccc2ccccc2c1.O=C(C=C([O-])C(F)(F)F)c1ccc2ccccc2c1.O=C(C=C([O-])C(F)(F)F)c1ccc2ccccc2c1.[Eu+3].[Eu+3] reported_metric="Solubility, Methyl Ethyl Ketone" result="over 10.0 w/v %"

====

# Procedure Summary: Fluorescence (photoluminescence) intensity in ethanol, fluorescence spectrophotometer RF-5300PC
# Format: physicochemical
# Condition Set: 25 mg of compound in 100 ml of ethanol
Reported Metric: Fluorescence Intensity
In your answer, state the number alone without any accompanying words.

Field request: Fluorescence Intensity | item: C[N+](C)(C)CCCC[N+](C)(C)C.O=C(C=C([O-])C(F)(F)F)c1ccc2ccccc2c1.O=C(C=C([O-])C(F)(F)F)c1ccc2ccccc2c1.O=C(C=C([O-])C(F)(F)F)c1ccc2ccccc2c1.O=C(C=C([O-])C(F)(F)F)c1ccc2ccccc2c1.O=C(C=C([O-])C(F)(F)F)c1ccc2ccccc2c1.O=C(C=C([O-])C(F)(F)F)c1ccc2ccccc2c1.O=C(C=C([O-])C(F)(F)F)c1ccc2ccccc2c1.O=C(C=C([O-])C(F)(F)F)c1ccc2ccccc2c1.[Al+3].[Al+3] [Luminous Organic Compound 11]
262

====

Please go through the items and note down their Solubility, Ethanol.
# Condition Set: ethanol; stood at room temperature overnight
Your answer should be a plain number; it is taken to be in w/v %.

Given the entry C[N+](C)(C)CC[N+](C)(C)C.O=C(C=C([O-])C(F)(F)F)c1ccc2ccccc2c1.O=C(C=C([O-])C(F)(F)F)c1ccc2ccccc2c1.O=C(C=C([O-])C(F)(F)F)c1ccc2ccccc2c1.O=C(C=C([O-])C(F)(F)F)c1ccc2ccccc2c1.O=C(C=C([O-])C(F)(F)F)c1ccc2ccccc2c1.O=C(C=C([O-])C(F)(F)F)c1ccc2ccccc2c1.O=C(C=C([O-])C(F)(F)F)c1ccc2ccccc2c1.O=C(C=C([O-])C(F)(F)F)c1ccc2ccccc2c1.[Eu+3].[Eu+3] [Luminous Organic Compound 1] , report its measured Solubility, Ethanol.
0.20

Next compound up: C[N+](C)(C)CCCCCC[N+](C)(C)C.O=C(C=C([O-])C(F)(F)F)c1ccc2ccccc2c1.O=C(C=C([O-])C(F)(F)F)c1ccc2ccccc2c1.O=C(C=C([O-])C(F)(F)F)c1ccc2ccccc2c1.O=C(C=C([O-])C(F)(F)F)c1ccc2ccccc2c1.O=C(C=C([O-])C(F)(F)F)c1ccc2ccccc2c1.O=C(C=C([O-])C(F)(F)F)c1ccc2ccccc2c1.O=C(C=C([O-])C(F)(F)F)c1ccc2ccccc2c1.O=C(C=C([O-])C(F)(F)F)c1ccc2ccccc2c1.[Eu+3].[Eu+3] [Luminous Organic Compound 3]
0.14

Same question, C[N+](C)(C)CCCC[N+](C)(C)C.O=C(C=C([O-])C(F)(F)F)c1cccs1.O=C(C=C([O-])C(F)(F)F)c1cccs1.O=C(C=C([O-])C(F)(F)F)c1cccs1.O=C(C=C([O-])C(F)(F)F)c1cccs1.O=C(C=C([O-])C(F)(F)F)c1cccs1.O=C(C=C([O-])C(F)(F)F)c1cccs1.O=C(C=C([O-])C(F)(F)F)c1cccs1.O=C(C=C([O-])C(F)(F)F)c1cccs1.[Eu+3].[Eu+3] [Luminous Organic Compound 8] this time
0.15
